// melting point lookup, one value per entry

Some compounds with known melting point results, for comparison:
compound=COCc1c(C(=O)OC(C)C)ncc2[nH]c3cccc(Oc4ccccc4)c3c12 endpoint_result="201 to 203 °C"
compound=CCC(=O)N(C)c1c(C(=O)c2cccc(Cl)c2)[nH]c2cc(Cl)ccc12 endpoint_result="194 to 195 °C"
compound="Cc1cccc(C)c1N(CC(C)O)S(C)(=O)=O (centres undefined)" endpoint_result="81 to 84 °C"

**Q:** Give melting point for O=C([C@@H]1O[C@H]1c1ccccc1)N(CC1CC1)[C@@H]1CCCC[C@H]1O
**A:** 110 to 120 °C

**Q:** Look up and state reported melting point for Nc1cc(Oc2ccc(Oc3cc(N)cc(C(F)(F)F)c3)c(C(F)(F)F)c2)cc(C(F)(F)F)c1
**A:** 82 to 84 °C

**Q:** Please list melting point recorded for the compound O=C(NN1CCN(CCc2c[nH]c3ccccc23)CC1)c1ccc(O)cc1
**A:** 190 to 192 °C

**Q:** Quickly give me recorded melting point for O=S(=O)(c1ccccc1)n1c2cc(O)c(O)cc2c2cc(O)c(O)cc21
**A:** 240 to 241 °C

**Q:** Give a short answer stating reported melting point for COC(=O)NN=Cc1ccccc1N .
**A:** 149 to 150 °C

**Q:** State, in one line, measured melting point of COc1ccc2cc(-c3ccc(OCC(O)CNC(C)(C)C)cc3)n(C)c(=O)c2c1 (centres undefined)
**A:** 130 to 131 °C

Taken from a melting point compilation (Tetko et al.; mined from patent text by program, amines drawn as free bases though some values may be those of a salt).
